biological target: Cytochrome P450 2C9 (Homo sapiens) (UniProt P11712); assay: Cytochrome panel assay with activity outcomes; settings: recombinant CYP, pro-luciferin dealkylation, luminescence, p450-cyp2c9; series mostly up to 57.1 µM
Sequence (P11712 whole entry, looked up): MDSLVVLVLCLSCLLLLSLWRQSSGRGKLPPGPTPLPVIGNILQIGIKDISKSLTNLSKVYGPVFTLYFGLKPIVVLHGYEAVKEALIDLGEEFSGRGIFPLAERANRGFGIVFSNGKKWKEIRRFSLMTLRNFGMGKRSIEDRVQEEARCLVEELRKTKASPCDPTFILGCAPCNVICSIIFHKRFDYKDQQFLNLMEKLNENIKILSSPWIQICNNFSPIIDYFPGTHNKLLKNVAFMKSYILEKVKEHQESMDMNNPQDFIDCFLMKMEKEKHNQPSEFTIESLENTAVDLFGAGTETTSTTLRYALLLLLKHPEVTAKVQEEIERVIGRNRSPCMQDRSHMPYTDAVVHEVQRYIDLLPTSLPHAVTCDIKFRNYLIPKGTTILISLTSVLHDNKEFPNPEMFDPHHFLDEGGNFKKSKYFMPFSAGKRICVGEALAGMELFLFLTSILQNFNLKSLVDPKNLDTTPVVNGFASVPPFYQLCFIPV
The whole screen tested about 16,000 compounds, of which about 4,000 (25%) were called active. Roughly 26% stayed inconclusive and do not appear here. Calls follow the shape of the dose curve; as a rule, active = well fitted curve in the direction sought with a large enough effect; inconclusive = small, poorly fitted or top-dose-only effect, or effect the other way; inactive = no such curve, though single readings can be large or run the other way. These entries were drawn from the full list.
Outcome (select one): active, inactive

// query Could you kindly confirm the outcome this assay logged for COC(=O)[C@@]1(Cc2ccc(F)cc2)[C@@H]2C(=CC(=O)[C@H]2CC(=O)C(=O)N2CCCC2)CN1C(=O)c1ccccc1 ?
// result active

// query Field entry: C=C1C(=O)C=C2CN(C(=O)c3ccccc3)[C@@](Cc3ccc(F)cc3)(C(=O)OC)[C@@H]12
// result active

// query What would you report for C=C[C@@]1(C)CC(=O)[C@@]2(O)[C@@]3(C)[C@H](O)CCC(C)(C)[C@@H]3[C@H](O)[C@H](OC(C)=O)[C@]2(C)O1 ?
// result inactive

// query Also check C=C[C@@]1(C)CC(=O)[C@@]2(O)[C@@]3(C)[C@@H](O)CCC(C)(C)[C@@H]3[C@H](O)[C@H](OC(C)=O)[C@@]2(C)O1
// result inactive

// query Follow-up item: Cc1cccc(Oc2ncc(-c3ccc(Cl)cc3)cn2)c1C
// result inactive

// query Another: COc1cc(Br)c(C(C)NC(=O)c2cccc(Br)c2)cc1OC (stereo not drawn)
// result active

// query Same again, this time with O=C(CN(Cc1ccccc1)S(=O)(=O)c1ccc2c(c1)OCCO2)N/N=C/c1ccc(F)cc1
// result active

// query Follow-up item: CC(NC(=O)c1cccc(F)c1)C(c1cccs1)N1CCN(C)CC1 (stereo not drawn)
// result inactive

// query Also Cc1cccc(NC(=S)c2nc3ccccc3s2)c1 ?
// result inactive

// query Please do the same for COc1ccc(C(=O)NC(C)c2cc(OC)c(OC)cc2Br)cc1 (stereo not drawn) as well.
// result active

// query // same read-out, input: CN1CCC(N(C)C(=O)CCc2nc3ccccc3c(=O)[nH]2)CC1
// result inactive

// query Moving on to the next molecule: COC(=O)[C@@]1(Cc2ccc(F)cc2)[C@@H]2[C@@H](CC(=O)[C@H]2CC(=O)C(=O)N(C)C)CN1C(=O)c1ccccc1
// result active

// query Same thing, different molecule: O=C1NCC2=C1C(c1ccc(Br)cc1)Nc1ccccc1N2 (stereo not drawn)
// result active

// query Request: C=C[C@@]1(C)CC(=O)[C@@]2(O)[C@@]3(C)[C@@H](O)CCC(C)(C)[C@@H]3[C@H](OC(=O)CCN(C)C)[C@H](OC(C)=O)[C@@]2(C)O1
// result active

// query Check COc1cc(OC)c(OC)cc1C=NCC1(c2ccccc2)CCCC1 too.
// result inactive

// query Please do the same for CN1CCN(c2ccc([N+](=O)[O-])cc2S(=O)(=O)N2CCOCC2)CC1 as well.
// result inactive

// query Would you mind doing COC(=O)[C@@]1(Cc2ccc(OC)cc2)[C@@H]2C(=CC(=O)[C@H]2CC(=O)C(=O)N2CCCC2)CN1C(=O)c1ccccc1 as well?
// result active

// query Okay, and O=[N+]([O-])c1ccc(N2CCN(Cc3ccccc3)CC2)c(S(=O)(=O)N2CCOCC2)c1 ?
// result active
